System: Klebsiella pneumoniae Kp BM1
Type: cell-based
protocolConditions: Kp BM1
Where a SMILES comes first, the peptide text is derived from it. Bridges are numbered along the chain shown (N, C = ends). [ ]: non-standard residue; d: D form. The star is where a group is joined. X1 = O=C(c1ncc(Cl)cc1Cl)*; dNva = CCC[C@@H](N)C(=O)O; X29 = O=C(c1cc(Cl)ccn1)*; Dab = NCC[C@H](N)C(=O)O; X40 = Cc1cncc(C(=O)*)c1; Abu = CC[C@H](N)C(=O)O; Dap = NC[C@H](N)C(=O)O
Listing of entries alongside the reported Minimum inhibitory concentration.
Numbers only here, please. The scale is µg/mL.

Some compounds with recorded Minimum inhibitory concentration:
• CC[C@@H]1NC(=O)[C@@H](CC(C)C)NC(=O)[C@H](CCN)NC(=O)[C@@H](NC(=O)[C@H](CN)NC(=O)[C@@H](NC(=O)[C@H](CCN)NC(=O)c2cncc(C)c2)[C@@H](C)O)CCNC(=O)[C@H]([C@@H](C)O)NC(=O)[C@H](CCN)NC(=O)[C@H](CCN)NC1=O [Compound 30] (X40-[Dab]T[Dap][Dab][Dab][dL][Abu][Dab][Dab]T; lactam 4-C) = 1
• CCC[C@H]1NC(=O)[C@H](CCN)NC(=O)[C@@H](NC(=O)[C@H](CN)NC(=O)[C@@H](NC(=O)[C@H](CCN)NC(=O)c2cc(Cl)ccn2)[C@@H](C)O)CCNC(=O)[C@H]([C@@H](C)O)NC(=O)[C@H](CCN)NC(=O)[C@H](CCN)NC(=O)[C@H](CC)NC1=O [Compound 96] (X29-[Dab]T[Dap][Dab][Dab][dNva][Abu][Dab][Dab]T; lactam 4-C) = 1

# ---- query compound ----
Result for C[C@@H](O)[C@@H]1NC(=O)[C@H](CCN)NC(=O)[C@H](CCN)NC(=O)[C@H]([C@@H](C)O)NC(=O)[C@@H](Cc2ccccc2)NC(=O)[C@H](CCN)NC(=O)[C@@H](NC(=O)[C@H](CN)NC(=O)[C@@H](NC(=O)[C@H](CCN)NC(=O)c2ncc(Cl)cc2Cl)[C@@H](C)O)CCNC1=O [Compound 11] (X1-[Dab]T[Dap][Dab][Dab][dF]T[Dab][Dab]T; lactam 4-C) , tested on Klebsiella pneumoniae Kp BM1, Minimum inhibitory concentration: 1

* * *

System: Klebsiella pneumoniae Kp BM1
Format: cell-based
protocolConditions: Kp BM1
Where a SMILES comes first, the peptide text is derived from it. Bridges are numbered along the chain shown (N, C = ends). [ ]: non-standard residue; d: D form. The star is where a group is joined. Benzothiazole(2-CH2CH2CO) = O=C(CCc1nc2ccccc2s1)*; Nicotinoyl(6-CF3) = O=C(c1ccc(C(F)(F)F)nc1)*; X63 = O=C(c1ccc(C(F)(F)F)nc1Cl)*; Dab = NCC[C@H](N)C(=O)O; Abu = CC[C@H](N)C(=O)O; Dap = NC[C@H](N)C(=O)O
propertyLabel: Minimum inhibitory concentration

Some molecules with recorded Minimum inhibitory concentration:
• CC[C@@H]1NC(=O)[C@@H](CC(C)C)NC(=O)[C@H](CCN)NC(=O)[C@@H](NC(=O)[C@H](CN)NC(=O)[C@@H](NC(=O)[C@H](CCN)NC(=O)CCc2nc3ccccc3s2)[C@@H](C)O)CCNC(=O)[C@H]([C@@H](C)O)NC(=O)[C@H](CCN)NC(=O)[C@H](CCN)NC1=O [Compound 72] ({Benzothiazole(2-CH2CH2CO)}-[Dab]T[Dap][Dab][Dab][dL][Abu][Dab][Dab]T; lactam 4-C) = <0.125 µg/mL
• CC[C@@H]1NC(=O)[C@@H](CC(C)C)NC(=O)[C@H](CCN)NC(=O)[C@@H](NC(=O)[C@H](CN)NC(=O)[C@@H](NC(=O)[C@H](CCN)NC(=O)c2ccc(C(F)(F)F)nc2)[C@@H](C)O)CCNC(=O)[C@H]([C@@H](C)O)NC(=O)[C@H](CCN)NC(=O)[C@H](CCN)NC1=O [Compound 3] ({Nicotinoyl(6-CF3)}-[Dab]T[Dap][Dab][Dab][dL][Abu][Dab][Dab]T; lactam 4-C) = 1 µg/mL

# ---- query molecule ----
Field Minimum inhibitory concentration (entry CC[C@@H]1NC(=O)[C@@H](CC(C)C)NC(=O)[C@H](CCN)NC(=O)[C@@H](NC(=O)[C@H](CN)NC(=O)[C@@H](NC(=O)[C@H](CCN)NC(=O)c2ccc(C(F)(F)F)nc2Cl)[C@@H](C)O)CCNC(=O)[C@H]([C@@H](C)O)NC(=O)[C@H](CCN)NC(=O)[C@H](CCN)NC1=O [Compound 40] (X63-[Dab]T[Dap][Dab][Dab][dL][Abu][Dab][Dab]T; lactam 4-C) ) reads <0.125 µg/mL
